- Measured On: Proprotein convertase subtilisin/kexin type 6 (Homo sapiens, UniProt P29122)
- Sequence (P29122 whole entry): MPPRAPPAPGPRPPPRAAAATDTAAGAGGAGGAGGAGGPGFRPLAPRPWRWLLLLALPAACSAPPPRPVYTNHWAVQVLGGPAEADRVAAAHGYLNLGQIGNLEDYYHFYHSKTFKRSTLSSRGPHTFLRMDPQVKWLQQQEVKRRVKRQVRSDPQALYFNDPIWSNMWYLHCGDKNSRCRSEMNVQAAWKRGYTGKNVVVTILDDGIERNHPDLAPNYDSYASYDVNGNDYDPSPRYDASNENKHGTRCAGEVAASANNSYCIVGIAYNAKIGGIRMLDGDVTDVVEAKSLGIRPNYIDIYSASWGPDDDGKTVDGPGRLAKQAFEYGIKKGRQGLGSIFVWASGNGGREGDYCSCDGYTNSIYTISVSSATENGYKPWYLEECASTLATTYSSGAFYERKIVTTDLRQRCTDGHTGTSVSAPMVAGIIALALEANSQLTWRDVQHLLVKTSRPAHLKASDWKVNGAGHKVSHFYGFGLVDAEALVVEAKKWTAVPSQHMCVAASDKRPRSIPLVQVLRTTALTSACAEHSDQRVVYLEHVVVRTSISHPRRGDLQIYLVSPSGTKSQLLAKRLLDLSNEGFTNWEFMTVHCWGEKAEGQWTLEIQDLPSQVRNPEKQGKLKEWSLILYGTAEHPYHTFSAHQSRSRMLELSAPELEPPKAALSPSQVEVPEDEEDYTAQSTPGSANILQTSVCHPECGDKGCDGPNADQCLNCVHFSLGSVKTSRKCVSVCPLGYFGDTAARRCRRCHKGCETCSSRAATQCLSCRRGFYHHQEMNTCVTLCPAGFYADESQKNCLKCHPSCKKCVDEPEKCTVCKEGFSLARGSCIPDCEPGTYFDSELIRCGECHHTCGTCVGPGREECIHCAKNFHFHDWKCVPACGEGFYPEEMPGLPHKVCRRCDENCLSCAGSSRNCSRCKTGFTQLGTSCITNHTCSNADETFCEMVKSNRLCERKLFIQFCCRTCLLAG
- Assay Protocol: Inhibition of recombinant human PACE4 expressed in drosophila S2 cells using pyrGlu-Arg-Thr-Lys-Arg-7-amido-4-methylcoumarin as substrate after 60 mins by spectrofluorometry method
pKi: −log10 of the molar value. Peptide text beside a SMILES is read from it. * marks the point of attachment. NH(4-amidinobenzyl) = N=C(N)c1ccc(CN*)cc1
Property: pKi; scope: individual compounds
Measure: pKi

CC(=O)N[C@@H](CC(C)C)C(=O)N[C@@H](CC(C)C)C(=O)N[C@@H](Cc1ccc(O)cc1)C(=O)N[C@@H](CC(C)C)C(=O)N[C@@H](CCCNC(=N)N)C(=O)N[C@H](C(=O)N[C@@H](CCCCN)C(=O)NCc1ccc(C(=N)N)cc1)C(C)C (Ac-LLYLRVK-{NH(4-amidinobenzyl)}) | 8.32
CC(=O)N[C@@H](CC(C)C)C(=O)NCC(=O)N[C@@H](CC(C)C)C(=O)N[C@@H](CC(C)C)C(=O)N[C@@H](CCCNC(=N)N)C(=O)N[C@H](C(=O)N[C@@H](CCCCN)C(=O)NCc1ccc(C(=N)N)cc1)C(C)C (Ac-LGLLRVK-{NH(4-amidinobenzyl)}) | 8.70
CC(=O)N[C@@H](CC(C)C)C(=O)N[C@@H](CC(C)C)C(=O)N[C@@H](CC(C)C)C(=O)N[C@@H](CCC(=O)O)C(=O)N[C@@H](CCCNC(=N)N)C(=O)N[C@H](C(=O)N[C@@H](CCCCN)C(=O)NCc1ccc(C(=N)N)cc1)C(C)C (Ac-LLLERVK-{NH(4-amidinobenzyl)}) | 7.34
CC(=O)N[C@@H](Cc1c[nH]c2ccccc12)C(=O)N[C@@H](CC(C)C)C(=O)N[C@@H](CC(C)C)C(=O)N[C@@H](CC(C)C)C(=O)N[C@@H](CCCNC(=N)N)C(=O)N[C@H](C(=O)N[C@@H](CCCCN)C(=O)NCc1ccc(C(=N)N)cc1)C(C)C (Ac-WLLLRVK-{NH(4-amidinobenzyl)}) | 8.05
CC(=O)N[C@@H](CCC(=O)O)C(=O)N[C@@H](CC(C)C)C(=O)N[C@@H](CC(C)C)C(=O)N[C@@H](CC(C)C)C(=O)N[C@@H](CCCNC(=N)N)C(=O)N[C@H](C(=O)N[C@@H](CCCCN)C(=O)NCc1ccc(C(=N)N)cc1)C(C)C (Ac-ELLLRVK-{NH(4-amidinobenzyl)}) | 8.10
CC(=O)N[C@H](C(=O)N[C@@H](CC(C)C)C(=O)N[C@@H](CC(C)C)C(=O)N[C@@H](CC(C)C)C(=O)N[C@@H](CCCNC(=N)N)C(=O)N[C@H](C(=O)N[C@@H](CCCCN)C(=O)NCc1ccc(C(=N)N)cc1)C(C)C)C(C)C (Ac-VLLLRVK-{NH(4-amidinobenzyl)}) | 8.30
CC[C@H](C)[C@H](NC(=O)[C@H](CC(C)C)NC(=O)[C@H](CC(C)C)NC(C)=O)C(=O)N[C@@H](CC(C)C)C(=O)N[C@@H](CCCNC(=N)N)C(=O)N[C@H](C(=O)N[C@@H](CCCCN)C(=O)NCc1ccc(C(=N)N)cc1)C(C)C (Ac-LLILRVK-{NH(4-amidinobenzyl)}) | 8.00

====

Quick reference for pKi among some compounds
- Measured On: Proprotein convertase subtilisin/kexin type 6 (Homo sapiens)
- Assay Protocol: Inhibition of recombinant human PACE4 expressed in drosophila S2 cells using pyrGlu-Arg-Thr-Lys-Arg-7-amido-4-methylcoumarin as substrate after 60 mins by spectrofluorometry method
pKi: −log10 of the molar value. Peptide text beside a SMILES is read from it. * marks the point of attachment. NH(4-amidinobenzyl) = N=C(N)c1ccc(CN*)cc1
Measure: pKi

CC(=O)N[C@H](C(=O)N[C@@H](CC(C)C)C(=O)N[C@@H](CC(C)C)C(=O)N[C@@H](CC(C)C)C(=O)N[C@@H](CCCNC(=N)N)C(=O)N[C@H](C(=O)N[C@@H](CCCCN)C(=O)NCc1ccc(C(=N)N)cc1)C(C)C)[C@@H](C)O (Ac-TLLLRVK-{NH(4-amidinobenzyl)}) | 8.40
CC(=O)N[C@@H](CC(C)C)C(=O)N1CCC[C@H]1C(=O)N[C@@H](CC(C)C)C(=O)N[C@@H](CC(C)C)C(=O)N[C@@H](CCCNC(=N)N)C(=O)N[C@H](C(=O)N[C@@H](CCCCN)C(=O)NCc1ccc(C(=N)N)cc1)C(C)C (Ac-LPLLRVK-{NH(4-amidinobenzyl)}) | 9.00

====

- Measured On: Furin (Homo sapiens)
- Sequence (P09958 whole entry): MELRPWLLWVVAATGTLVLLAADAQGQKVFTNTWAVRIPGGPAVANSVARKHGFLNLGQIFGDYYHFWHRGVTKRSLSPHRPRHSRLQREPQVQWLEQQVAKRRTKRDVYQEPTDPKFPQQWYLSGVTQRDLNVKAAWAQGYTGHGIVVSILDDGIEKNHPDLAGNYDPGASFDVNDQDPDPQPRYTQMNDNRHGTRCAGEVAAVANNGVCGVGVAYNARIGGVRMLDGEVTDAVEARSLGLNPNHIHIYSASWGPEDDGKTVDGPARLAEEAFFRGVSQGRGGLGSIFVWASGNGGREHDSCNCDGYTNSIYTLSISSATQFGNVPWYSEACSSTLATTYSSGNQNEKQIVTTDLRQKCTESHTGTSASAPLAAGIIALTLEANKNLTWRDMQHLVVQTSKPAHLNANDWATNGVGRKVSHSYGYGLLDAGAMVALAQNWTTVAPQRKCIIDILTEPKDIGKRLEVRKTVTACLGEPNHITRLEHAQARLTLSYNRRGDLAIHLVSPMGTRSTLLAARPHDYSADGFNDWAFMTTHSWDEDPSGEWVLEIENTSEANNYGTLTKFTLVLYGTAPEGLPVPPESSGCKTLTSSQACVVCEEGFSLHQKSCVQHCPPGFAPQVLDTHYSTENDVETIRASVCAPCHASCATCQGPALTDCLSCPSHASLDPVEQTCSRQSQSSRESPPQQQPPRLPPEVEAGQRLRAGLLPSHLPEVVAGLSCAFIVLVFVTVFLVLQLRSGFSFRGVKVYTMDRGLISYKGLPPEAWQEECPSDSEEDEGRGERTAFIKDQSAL
- Assay Protocol: Inhibition of recombinant human furin expressed in drosophila S2 cells using pyrGlu-Arg-Thr-Lys-Arg-7-amido-4-methylcoumarin as substrate after 60 mins by spectrofluorometry method
pKi: −log10 of the molar value. Peptide text beside a SMILES is read from it. * marks the point of attachment. NH(4-amidinobenzyl) = N=C(N)c1ccc(CN*)cc1
Is pKi at least 9? Then Satisfied. If not, Not satisfied.

CC(=O)N[C@@H](CC(=O)O)C(=O)N[C@@H](CC(C)C)C(=O)N[C@@H](CC(C)C)C(=O)N[C@@H](CC(C)C)C(=O)N[C@@H](CCCNC(=N)N)C(=O)N[C@H](C(=O)N[C@@H](CCCCN)C(=O)NCc1ccc(C(=N)N)cc1)C(C)C (Ac-DLLLRVK-{NH(4-amidinobenzyl)}) | Not satisfied
CC[C@H](C)[C@H](NC(=O)[C@H](CC(C)C)NC(=O)[C@H](CC(C)C)NC(C)=O)C(=O)N[C@@H](CC(C)C)C(=O)N[C@@H](CCCNC(=N)N)C(=O)N[C@H](C(=O)N[C@@H](CCCCN)C(=O)NCc1ccc(C(=N)N)cc1)C(C)C (Ac-LLILRVK-{NH(4-amidinobenzyl)}) | Not satisfied
CC(=O)N[C@@H](CC(C)C)C(=O)N[C@@H](CC(C)C)C(=O)N[C@H](C(=O)N[C@@H](CC(C)C)C(=O)N[C@@H](CCCNC(=N)N)C(=O)N[C@H](C(=O)N[C@@H](CCCCN)C(=O)NCc1ccc(C(=N)N)cc1)C(C)C)[C@@H](C)O (Ac-LLTLRVK-{NH(4-amidinobenzyl)}) | Not satisfied
CC(=O)N[C@@H](CC(C)C)C(=O)N[C@@H](CC(C)C)C(=O)N[C@@H](C)C(=O)N[C@@H](CC(C)C)C(=O)N[C@@H](CCCNC(=N)N)C(=O)N[C@H](C(=O)N[C@@H](CCCCN)C(=O)NCc1ccc(C(=N)N)cc1)C(C)C (Ac-LLALRVK-{NH(4-amidinobenzyl)}) | Not satisfied
CC(=O)N[C@@H](CC(C)C)C(=O)N[C@@H](CCCNC(=N)N)C(=O)N[C@@H](CC(C)C)C(=O)N[C@@H](CC(C)C)C(=O)N[C@@H](CCCNC(=N)N)C(=O)N[C@H](C(=O)N[C@@H](CCCCN)C(=O)NCc1ccc(C(=N)N)cc1)C(C)C (Ac-LRLLRVK-{NH(4-amidinobenzyl)}) | Satisfied
